We begin with a simple list: items and their reported TGI.
Test system: OVCAR-4 ovarian
Assay: NCI tumour cell line growth inhibition, 48 h
property_name: TGI

{"compound": "CCN1C(=O)/C(=C2\\SC(c3ccccc3)(c3ccccc3)c3ccccc32)SC1=S", "result": "> 100 µM"}
{"compound": "NC(=S)N/N=C/c1ccc(N)cn1", "result": "> 10 µM"}
{"compound": "Cc1c(-c2ccccc2)c(C#N)c2nnn(C3CCCCC3)c(=O)n12", "result": "> 100 µM"}
{"compound": "COc1cc2c(cc1OC)CN1CCCc3cc(OC)c(OC)cc3C1C2 (stereo not given)", "result": "> 100 µM"}
{"compound": "CC(C)(CCN=C(N)Nc1ccccn1)c1ccc(C(F)(F)F)cc1", "result": "28.1 µM"}
{"compound": "S=C(N/N=C/c1ccccn1)Nc1ccc(Cl)cc1", "result": "> 100 µM"}
{"compound": "COC(=O)[C@@]1(Cc2ccc(O)cc2)C[C@@H]2Cc3ccccc3N2N1", "result": "> 100 µM"}
{"compound": "O=C(CC(C(=O)c1cccs1)c1cccs1)c1ccccc1Cl (stereo not given)", "result": "> 100 µM"}
{"compound": "O=C(N/C(=C\\c1ccc(/C=C(\\NC(=O)c2ccccc2)c2nc3cc(Cl)ccc3[nH]2)cc1)c1nc2cc(Cl)ccc2[nH]1)c1ccccc1", "result": "87 µM"}
{"compound": "COc1ccc2c(Cc3c4ccccc4cc4ccccc34)cncc2c1O", "result": "> 74.2 µM"}

* * *

System: UO-31 renal
Assay: NCI tumour cell line growth inhibition, 48 h

{"molecule": "Cn1cc(S(=O)(=O)NC(=O)Nc2ccc(Cl)cc2)c2ccccc21", "TGI": "> 100 µM"}
{"molecule": "Cc1c(-c2ccccc2)c(C#N)c2nnn(C3CCCCC3)c(=O)n12", "TGI": "6.85 µM"}
{"molecule": "O=C1CCCC(=O)N1n1c(Cc2ccccc2)n[nH]c1=O", "TGI": "> 100 µM"}
{"molecule": "O=c1c(C2=NCCC2)c(-c2ccc[nH]2)[nH]n1-c1ccccc1", "TGI": "> 100 µM"}
{"molecule": "COc1ccc(/C=C/C(=N/NC(=O)N/N=C(/C=C/c2ccc(OC)cc2)C(C)(C)CN2CCCCC2)C(C)(C)CN2CCCCC2)cc1", "TGI": "2.95 µM"}
{"molecule": "O=C(Nc1nc(C23CC4CC(CC(C4)C2)C3)cs1)c1cc2cc(Cl)ccc2oc1=O", "TGI": "> 100 µM"}
{"molecule": "O=C(OC[C@H]1C[C@H]2C(=O)CCC[C@H]2O1)c1ccccc1", "TGI": "> 100 µM"}
{"molecule": "Cc1ccc(N=C2S/C(=C3/CCC=C3N3CCOCC3)N(c3ccc(Cl)cc3)C2=Nc2ccc(C)cc2)cc1", "TGI": "> 100 µM"}
{"molecule": "NC1(C(=O)O)CCc2ccc(N(CCCl)CCCl)cc2C1 (centres undefined)", "TGI": "> 100 µM"}
{"molecule": "Cc1ccc2c(c1)C1(OC(=O)c3ccccc31)c1ccc(F)cc1O2 (centres undefined)", "TGI": "75.8 µM"}
{"molecule": "NC(=O)c1ncn(CCN2CCN(C(=O)NCCCCCCNC(=O)N3CCN(CCn4cnc(C(N)=O)c4N)CC3)CC2)c1N", "TGI": "> 100 µM"}
{"molecule": "CCN(CC)CCOc1ccc(/C=C2\\C[C@H]3[C@H]4CC=C5C[C@@H](O)CC[C@]5(C)[C@H]4CC[C@]3(C)[C@H]2O)cc1OC", "TGI": "18 µM"}
{"molecule": "CN(C)CCC=C1c2ccccc2C(C)(C)c2ccccc21", "TGI": "20.7 µM"}
{"molecule": "CC1=NN2C(c3ccc(C)cc3)=CSC2=NC(C)(C)C1", "TGI": "> 100 µM"}
{"molecule": "CCCC(N)C(=O)c1ccccc1 (centres undefined)", "TGI": "> 100 µM"}
{"molecule": "CCCCc1ccc(-n2sc3ncc([N+](=O)[O-])cc3c2=O)cc1", "TGI": "35.5 µM"}
{"molecule": "N#Cc1cc([N+](=O)[O-])ccc1NC(=O)C(F)(F)F", "TGI": "> 100 µM"}
{"molecule": "OC(c1cc2ccccc2[nH]1)C1(c2cccnc2)SCCCS1 (centres undefined)", "TGI": "> 100 µM"}
{"molecule": "CC1=C(C(=O)Nc2ccc3[nH]ncc3c2)C(c2ccc(Cl)c(Cl)c2)CC(=O)N1 (centres undefined)", "TGI": "> 25 µM"}
{"molecule": "CCCCCCCCCCC/C=C\\C[C@H](O)C/C=C1/C(=O)C=C[C@@H]1C/C=C\\CCCC(=O)OC", "TGI": "4.67 µM"}
{"molecule": "Cc1nc2c(cc1C(=O)N/N=C/c1ccc([N+](=O)[O-])cc1)c(=O)n(C)c(=O)n2C", "TGI": "> 100 µM"}
{"molecule": "Cn1c2ccccc2c(=O)c2c(O)cc3c(c21)CC(C1(C)CO1)O3 (centres undefined)", "TGI": "4.09 µM"}
{"molecule": "Cc1ccc(NCC(=O)N2CC(=O)Nc3ccccc32)cc1", "TGI": "> 100 µM"}
{"molecule": "Nn1c(CCCCCCCCc2nnc(COc3ccccc3)n2N)nnc1COc1ccccc1", "TGI": "> 100 µM"}

* * *

Test system: HL-60(TB) leukemia
Experiment: NCI tumour cell line growth inhibition, 48 h

{"compound": "Cn1c(=O)c2ccc(-c3ccc(Br)cc3)nc2n(C)c1=O", "bound_operator": ">", "TGI, µM": 100}
{"compound": "NC(=S)N/N=C/c1ccc(N)cn1", "bound_operator": "=", "TGI, µM": 5.44}
{"compound": "C[n+]1c2ccccc2n2c3ccccc3c(NCCc3ccccn3)c(C#N)c21", "bound_operator": "=", "TGI, µM": 7.9}
{"compound": "CN1C(=O)C(C(N)=O)C2CC1(C)Oc1ccccc12 (centres undefined)", "bound_operator": ">", "TGI, µM": 100}
{"compound": "O=C(O)CC1NC(/C(=C/c2ccccc2O)NC(=O)c2ccccc2)OC1=O (centres undefined)", "bound_operator": ">", "TGI, µM": 100}
{"compound": "CC(=O)Oc1c2c(c(CC=C(C)C)c3c1C(=O)C1=C[C@@H]4CC5C(C)(C)OC(C/C=C(/C)C(=O)O)(C4=O)[C@@]15O3)OC(C)(CCC=C(C)C)C=C2 (some centres undefined)", "bound_operator": "=", "TGI, µM": 10.6}
{"compound": "CCC(C)[C@H](NC(=O)NC(=O)NC(=O)CI)C(=O)OC (some centres undefined)", "bound_operator": "=", "TGI, µM": 3.4}
{"compound": "O=C(Nc1ccc(Sc2ccc(N=Nc3c(O)c(S(=O)(=O)O)cc4cc(S(=O)(=O)O)ccc34)cc2)cc1)c1ccc(N=Nc2c(O)ccc3c(S(=O)(=O)O)cc(S(=O)(=O)O)cc23)cc1", "bound_operator": "=", "TGI, µM": 33.5}
{"compound": "O=C(CC(C(=O)c1cccs1)c1cccs1)c1ccccc1Cl (centres undefined)", "bound_operator": ">", "TGI, µM": 100}

* * *

System: LOX IMVI melanoma
Assay: NCI tumour cell line growth inhibition, 48 h
property_name: TGI

{"compound": "C/C=C(/CCC1NCCC2c3ccccc3NC12)[Si](C)(C)C (stereo unspecified)", "result": "20.2 µM"}
{"compound": "NC1(C(=O)O)CCc2ccc(N(CCCl)CCCl)cc2C1 (stereo unspecified)", "result": "> 100 µM"}
{"compound": "Cc1cc(=O)n2c3c(c4c(cc13)c(CO)cc(=O)n4C)OC2", "result": "21.1 µM"}
{"compound": "CCOc1ccc2c(C)cc(=O)oc2c1", "result": "> 100 µM"}
{"compound": "COc1cccc(NC(=O)C(C)(C)C)c1SSc1c(NC(=O)C(C)(C)C)cccc1OC", "result": "30.4 µM"}
{"compound": "C1COCCOCCOCCOCCOCCO1.[Cl][Sn]([Cl])([c]1ccccc1)[c]1ccccc1", "result": "4.77 µM"}
